Recorded inhibition by entry
- tgt: 3',5'-cyclic-AMP phosphodiesterase 4D (Homo sapiens)
- Sequence (Q08499 whole entry): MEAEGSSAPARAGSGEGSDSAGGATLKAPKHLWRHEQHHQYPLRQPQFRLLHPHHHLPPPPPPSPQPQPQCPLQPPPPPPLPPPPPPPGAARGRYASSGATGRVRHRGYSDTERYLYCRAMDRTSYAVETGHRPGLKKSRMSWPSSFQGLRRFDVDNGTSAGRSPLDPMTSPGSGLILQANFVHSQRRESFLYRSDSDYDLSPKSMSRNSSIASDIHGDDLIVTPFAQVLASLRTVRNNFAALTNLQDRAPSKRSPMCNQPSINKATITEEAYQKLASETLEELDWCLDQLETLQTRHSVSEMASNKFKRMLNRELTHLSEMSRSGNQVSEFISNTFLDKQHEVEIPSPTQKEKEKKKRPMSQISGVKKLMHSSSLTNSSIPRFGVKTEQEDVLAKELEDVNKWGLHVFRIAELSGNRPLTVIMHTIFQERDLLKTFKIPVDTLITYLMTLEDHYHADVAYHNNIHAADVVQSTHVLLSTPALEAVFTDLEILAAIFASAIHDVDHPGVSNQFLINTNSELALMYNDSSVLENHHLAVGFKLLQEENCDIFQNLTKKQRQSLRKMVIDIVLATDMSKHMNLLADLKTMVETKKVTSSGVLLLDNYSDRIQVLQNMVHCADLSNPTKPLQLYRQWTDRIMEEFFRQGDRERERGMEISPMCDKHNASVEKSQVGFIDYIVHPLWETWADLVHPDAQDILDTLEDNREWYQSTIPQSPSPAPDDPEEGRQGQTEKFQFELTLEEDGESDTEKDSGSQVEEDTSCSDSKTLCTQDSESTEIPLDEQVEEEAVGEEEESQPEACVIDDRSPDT
- assayComment: Inhibition of recombinant full-length PDE4D2 (unknown origin) at 1 uM using FAM-cAMP as substrate preincubated for 15 mins followed by substrate addition and measured after 30 mins by plate reader assay relative to control
- measurementSetup: time 45.0 min

Ask: Provide only the value of recorded inhibition for O=C(NCC1CCOCC1)c1cnn2c(-c3ccc(OC(F)F)c(OCC4CC4)c3)ccnc12
Reply: < 73.1%

Ask: Provide only the value of recorded inhibition for O=C(NCc1ccc(F)cc1F)c1csc(-c2ccc(OC(F)F)c(OCC3CC3)c2)n1
Reply: 79.1%

Ask: Provide only the value of recorded inhibition for O=C(NCc1ccccc1)c1cnn2c(-c3ccc(OC(F)F)c(OCC4CC4)c3)ccnc12
Reply: < 73.1%

Ask: Provide only the value of recorded inhibition for O=C(Nc1ccccc1)c1cnn2c(-c3ccc(OC(F)F)c(OCC4CC4)c3)ccnc12
Reply: < 73.1%

Could you now look at the following compound, please?
Ask: Provide only the value of recorded inhibition for O=C(Nc1ccccc1)c1csc(-c2ccc(OC(F)F)c(OCC3CC3)c2)n1
Reply: 72.4%
